Protocol Summary: Spectral properties of fluorescent dyes (Abs/Em)
Type: physicochemical
Cond: absorbance maximum, first number of Abs/Em
Measure: Abs (nm)

# Smiles Code, Abs (nm)
data = [
    ("CC(=O)O.CN(CCS(=O)(=O)O)C(=O)c1ccccc1-c1c2ccc(=N)cc-2oc2cc(N)ccc12", 518),
    ("CC(=O)O.CN(CCS(=O)(=O)[O-])C(=O)c1ccccc1C1=c2cc3c(cc2Oc2cc4c(cc21)C(CS(=O)(=O)O)=CC(C)(C)N4C)=[N+](C)C(C)(C)C=C3CS(=O)(=O)O", 601),
]
